Molecular target: T1, Recombinant purified human PD-1 protein, residues Leu25-Thr168, with a C-terminal 6-His tag (Homo sapiens, UniProt Q15116)
T1 construct: programmed cell death protein 1 (PD-1), human, residues Leu25-Thr168; also called programmed cell death protein 1; PD-1-His monomer; source: bought: R&D Systems (catalog# 8986-PD, lot# DDJM0417041)
T1 sequence (Q15116 25-168): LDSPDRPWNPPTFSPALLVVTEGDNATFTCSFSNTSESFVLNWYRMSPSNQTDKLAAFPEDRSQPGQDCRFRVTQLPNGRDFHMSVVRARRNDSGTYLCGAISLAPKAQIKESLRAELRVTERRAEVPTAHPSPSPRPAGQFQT
Test: SPR; Biacore 8K, CM5 chip (3D-hydrogel); mAb captured on amine-coupled goat anti-human IgG Fc, PD-1-His monomer as analyte (100 nM top, 3-fold dilutions), 1200 s dissociation; 25 C, HBS-EP+ pH 7.4; 1:1 Langmuir fit, apparent constants
Settings: both partners purified
readout type: kon (M⁻¹ s⁻¹)
Entry rule: numbers only, all in M⁻¹ s⁻¹.

Example binders with recorded kon:
{"columns": ["binder", "unit of measure", "kon"],
 "data": [
  ["mAb03 (antibody, V domains shown, IgG4; also called analog of tislelizumab; tisle; source: HEK293 suspension cells, cotransfected, purified (Protein A)) VH: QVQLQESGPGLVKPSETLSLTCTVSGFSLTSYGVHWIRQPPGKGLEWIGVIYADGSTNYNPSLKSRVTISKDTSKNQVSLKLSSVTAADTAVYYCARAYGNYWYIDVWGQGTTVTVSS VL: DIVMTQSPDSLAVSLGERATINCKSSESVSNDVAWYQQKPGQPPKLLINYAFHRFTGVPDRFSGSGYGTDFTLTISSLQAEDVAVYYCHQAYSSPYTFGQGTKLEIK", "M⁻¹ s⁻¹", 218000],
  ["mAb17 (antibody, V domains shown, IgG4; also called analog of camrelizumab; camre; source: HEK293 suspension cells, cotransfected, purified (Protein A)) VH: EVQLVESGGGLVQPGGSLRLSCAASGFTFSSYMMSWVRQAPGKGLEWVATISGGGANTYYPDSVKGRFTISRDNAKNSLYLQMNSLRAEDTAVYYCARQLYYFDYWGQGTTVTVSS VL: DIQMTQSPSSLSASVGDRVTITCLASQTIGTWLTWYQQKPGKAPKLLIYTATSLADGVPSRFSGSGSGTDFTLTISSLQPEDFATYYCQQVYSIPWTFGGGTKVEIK", "M⁻¹ s⁻¹", 91400],
  ["mAb04 (antibody, V domains shown, IgG4; also called analog of retifanlimab; retifan; source: HEK293 suspension cells, cotransfected, purified (Protein A)) VH: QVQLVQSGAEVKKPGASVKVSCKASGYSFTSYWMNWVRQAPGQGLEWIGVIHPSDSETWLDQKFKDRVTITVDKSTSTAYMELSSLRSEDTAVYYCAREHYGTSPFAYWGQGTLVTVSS VL: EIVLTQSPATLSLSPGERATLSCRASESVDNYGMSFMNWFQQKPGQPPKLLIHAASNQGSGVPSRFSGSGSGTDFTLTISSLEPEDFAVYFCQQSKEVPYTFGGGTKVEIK", "M⁻¹ s⁻¹", 328000],
  ["mAb16 (antibody, V domains shown, IgG4; also called analog of dostarlimab; dostar; source: HEK293 suspension cells, cotransfected, purified (Protein A)) VH: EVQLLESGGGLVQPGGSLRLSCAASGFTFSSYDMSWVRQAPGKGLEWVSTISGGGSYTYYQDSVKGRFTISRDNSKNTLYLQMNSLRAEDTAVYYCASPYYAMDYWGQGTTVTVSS VL: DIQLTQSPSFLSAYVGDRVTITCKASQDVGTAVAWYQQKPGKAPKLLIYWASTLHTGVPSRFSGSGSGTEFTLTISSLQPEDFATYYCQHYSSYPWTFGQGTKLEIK", "M⁻¹ s⁻¹", 148000]
]}

Let us move to another entry and its kon.
Notebook: mAb23 (antibody, V domains shown, IgG4; also called analog of cemiplimab; cemip; source: HEK293 suspension cells, cotransfected, purified (Protein A)) VH: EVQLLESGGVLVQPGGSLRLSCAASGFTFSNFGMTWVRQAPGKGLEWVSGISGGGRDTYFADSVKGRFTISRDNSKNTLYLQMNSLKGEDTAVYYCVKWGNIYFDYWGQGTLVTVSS VL: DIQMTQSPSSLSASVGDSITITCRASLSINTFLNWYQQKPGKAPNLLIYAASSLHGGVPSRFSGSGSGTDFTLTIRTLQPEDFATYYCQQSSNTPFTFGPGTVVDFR , kon read as 90100
